B1: Hairpin Ribozyme (parent)
chain: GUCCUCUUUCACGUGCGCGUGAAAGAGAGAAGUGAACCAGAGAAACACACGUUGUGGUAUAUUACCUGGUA

variants of: B1; assay: self-cleavage, relative activity (ratio to wild type); higher = more cleavage; co-transcriptional
MEASURE: self-cleavage

// below: answered variants
GUCCUCUUUCACGUGCGCGUGCAAGAGAGAAGUGAACCAGAGAAACACACGUUGUGGUAUAUUACCAGGUA 0.195
GUCCUCUUUCACGUGCGCGUGAAAGAGGGAAGUGAACCAGAGAAACACACGUUGUGGUAUUUUACCUGGUA 0.182
GUCCUCUUUCACGUGCGCGUGAAAGAGAGAGGUGAACCAGAGAAACACACGUUGUUGUAUAUUACCUGGUA 0.106

Which self-cleavage reading was recorded for the variant GUCCUCUUUCACGUGCGCGUGAAAGAGAGAAGUCAACCAGAGAAAAACACGUUGUGGUAUAUUACCUGGUA ?
0.238
